Target: human TAS2R1 (Homo sapiens)
Construct: expressed in transfected cells; host or cells: HEK293T-Gα16gust44
Sequence (Q9NYW7 1-299): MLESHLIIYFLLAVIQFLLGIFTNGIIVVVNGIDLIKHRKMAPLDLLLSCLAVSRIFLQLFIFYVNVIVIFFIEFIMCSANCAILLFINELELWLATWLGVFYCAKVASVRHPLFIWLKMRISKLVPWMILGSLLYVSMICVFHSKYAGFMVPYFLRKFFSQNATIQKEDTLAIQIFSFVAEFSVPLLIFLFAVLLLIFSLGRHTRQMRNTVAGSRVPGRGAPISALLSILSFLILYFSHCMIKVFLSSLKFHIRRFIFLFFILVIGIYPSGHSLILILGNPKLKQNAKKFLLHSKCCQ
Assay: Calcium imaging assay (FLIPR), HEK293T-Gα16gust44 cells transfected with human TAS2R1
Format: cell-based
Conditions: Time 96.781 s
Readout Type: RLU (RLU)
Write down the numeric answer in RLU and omit the unit.

Example entries begin here.
compound="C[C@H](CCC(=O)NCC(=O)O)[C@H]1CC[C@H]2[C@@H]3[C@H](O)C[C@@H]4C[C@H](O)CC[C@]4(C)[C@H]3C[C@H](O)[C@]12C [Glycocholic Acid, glycocholic acid]" target="human TAS2R1 (Homo sapiens)" unit_symbol=RLU reading=550.308
compound="C[C@H](CCC(=O)NCCS(=O)(=O)O)[C@H]1CC[C@H]2[C@@H]3[C@H](O)C[C@@H]4C[C@H](O)CC[C@]4(C)[C@H]3C[C@H](O)[C@]12C [Taurocholic Acid, taurocholic acid]" target="human TAS2R1 (Homo sapiens)" unit_symbol=RLU reading=401
compound="C[C@H](CCC(=O)NCCS(=O)(=O)O)[C@H]1CC[C@H]2[C@@H]3CC[C@@H]4C[C@H](O)CC[C@]4(C)[C@H]3CC[C@]12C [Taurolithocholic Acid, taurolithocholic acid]" target="human TAS2R1 (Homo sapiens)" unit_symbol=RLU reading=665.125

Alright, here's another compound for you.
Given the compound C[C@H](CCC(=O)O)[C@H]1CC[C@H]2[C@@H]3CC[C@@H]4C[C@H](O)CC[C@]4(C)[C@H]3C[C@H](O)[C@]12C [Deoxycholic Acid, deoxycholic acid] , write its reported RLU.
400.692

The reported measurements were obtained from paper PMC10247784.
